experiment: Antiproliferative activity against human M21 cells after 48 hrs by SRB assay; assay type: functional; settings: M21, 48 h
Please note: GI50 exactly at 30 µM is False. Only values below 30 µM get True.

Solved cases (5 shown):
INSERT INTO assay_data (smiles_structure, class_assignment) VALUES
  ('NS(=O)(=O)NCCC1CCN(c2cc(-c3ccc(C(F)(F)F)cc3)ncn2)CC1', 'False'),
  ('CCOC(=O)c1ccc(-c2cc(N3CCC(CCNS(N)(=O)=O)CC3)ncn2)cc1', 'True'),
  ('NS(=O)(=O)NCC1CCN(c2cc(-c3ccc(Cl)cc3)ncn2)CC1', 'False'),
  ('NS(=O)(=O)NCC1CCN(c2cc(-c3ccccc3)ncn2)CC1', 'False'),
  ('COC(=O)c1ccc(-c2cc(N3CCC(CNS(N)(=O)=O)CC3)ncn2)cc1', 'True');

[Q] Answer whether the compound `NS(=O)(=O)NCCC1CCN(c2cc(-c3ccccc3F)ncn2)CC1` has GI50 strictly less than 30 µM
[A] False

[Q] Answer whether the compound `NS(=O)(=O)NCC1CCN(c2cc(-c3ccc(C(F)(F)F)cc3)ncn2)CC1` has GI50 strictly less than 30 µM
[A] False
